meta.source: ChEMBL document CHEMBL1833893

Tested on: Mus musculus
MEASUREMENT DESCRIPTION: Neurotoxicity in ip dosed albino CF1 mouse assessed as minimum dose required to cause motor impairment after 0.5 hrs by rotarod test
Format: toxicity, organism-based
EXPERIMENTAL SETUP: in vivo

{"COMPOUND": "O=C1NC(=O)C(c2ccccc2)(c2ccccc2)N1", "MTC, mg/kg": 100}
{"COMPOUND": "CC1CC(=O)N(CC(=O)N2CCN(c3cccc(C(F)(F)F)c3)CC2)C1=O (stereo unspecified)", "MTC, mg/kg": 300}
{"COMPOUND": "O=C(CN1C(=O)CCC1=O)N1CCN(c2ccccc2Cl)CC1", "MTC, mg/kg": 300}
{"COMPOUND": "O=C(CN1C(=O)CCC1=O)N1CCN(c2cccc(C(F)(F)F)c2)CC1", "MTC, mg/kg": 100}
{"COMPOUND": "O=C(CN1C(=O)CCC1=O)N1CCN(c2ccccc2F)CC1", "MTC, mg/kg": 300}
{"COMPOUND": "CC1(C)CC(=O)N(CC(=O)N2CCN(c3ccc(Cl)cc3)CC2)C1=O", "MTC, mg/kg": 300}
{"COMPOUND": "CC1CC(=O)N(CC(=O)N2CCN(c3ccccc3)CC2)C1=O (stereo unspecified)", "MTC, mg/kg": 300}
{"COMPOUND": "CC1CC(=O)N(CC(=O)N2CCN(c3ccccc3Cl)CC2)C1=O (stereo unspecified)", "MTC, mg/kg": 300}
{"COMPOUND": "CC1(C)CC(=O)N(CC(=O)N2CCN(c3ccc(F)cc3)CC2)C1=O", "MTC, mg/kg": 300}
{"COMPOUND": "CCC1(CC)CC(=O)N(CC(=O)N2CCN(c3ccccc3Cl)CC2)C1=O", "MTC, mg/kg": 300}
{"COMPOUND": "CC1CC(=O)N(CC(=O)N2CCN(c3ccccc3F)CC2)C1=O (stereo unspecified)", "MTC, mg/kg": 300}
